All figures here come from patent US10168342B2.

- Measured On: AEA-DA lipid probe targets in Neuro2a cells (Mus musculus, UniProt Q9QZD8)
- Sequence (Q9QZD8 1-287): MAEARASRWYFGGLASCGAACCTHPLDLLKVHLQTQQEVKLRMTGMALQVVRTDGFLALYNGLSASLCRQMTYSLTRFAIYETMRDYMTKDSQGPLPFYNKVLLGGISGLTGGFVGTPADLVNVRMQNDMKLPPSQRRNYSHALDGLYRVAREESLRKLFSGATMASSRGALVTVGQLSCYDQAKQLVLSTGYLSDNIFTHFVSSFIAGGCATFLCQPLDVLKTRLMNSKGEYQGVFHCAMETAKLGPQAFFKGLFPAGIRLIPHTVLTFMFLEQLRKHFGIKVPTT
- Protocol Conditions: competitor 25 μM
SILAC ratio Slc25a10 overview

| Molecule | SILAC ratio Slc25a10 |
| --- | --- |
| CN1CCN(C(=O)c2c(-c3ccccc3)c3cc([N+](=O)[O-])ccc3n2C)CC1 | 1.2 |
| CN1CCN(C(=O)c2[nH]c3ccc([N+](=O)[O-])cc3c2-c2ccccc2)CC1 | 1.2 |
| C=CCN(C)CCCCCCOc1ccc(C(=O)c2ccc(Br)cc2)c(F)c1 [Ro 48-8071, reference compound] | 0.9 |
| O=C(/C=C/c1cccnc1)NCCCCC1CCN(C(=O)c2ccccc2)CC1 [FK-866, reference compound] | 1.2 |

###

- Measured On: AEA-DA lipid probe targets in Neuro2a cells (Mus musculus, UniProt Q61425)
- Sequence (Q61425 13-314): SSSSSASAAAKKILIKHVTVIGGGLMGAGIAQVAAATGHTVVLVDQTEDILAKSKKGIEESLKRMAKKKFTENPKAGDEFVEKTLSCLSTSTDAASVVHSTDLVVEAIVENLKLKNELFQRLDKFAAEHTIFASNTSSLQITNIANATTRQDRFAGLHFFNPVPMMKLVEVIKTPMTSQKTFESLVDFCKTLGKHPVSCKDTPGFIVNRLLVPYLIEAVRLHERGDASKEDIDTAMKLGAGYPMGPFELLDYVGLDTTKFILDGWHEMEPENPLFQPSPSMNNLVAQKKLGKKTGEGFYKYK
- Protocol Conditions: competitor 25 μM
# SILAC ratio Hadh per entry

| Compound | Measured On | SILAC ratio Hadh |
| --- | --- | --- |
| CN1CCN(C(=O)c2[nH]c3ccc([N+](=O)[O-])cc3c2-c2ccccc2)CC1 | AEA-DA lipid probe targets in Neuro2a cells (Mus musculus, UniProt Q61425) | 1.3 |
| CN1CCN(C(=O)c2c(-c3ccccc3)c3cc([N+](=O)[O-])ccc3n2C)CC1 | AEA-DA lipid probe targets in Neuro2a cells (Mus musculus, UniProt Q61425) | 1.2 |
| C=CCN(C)CCCCCCOc1ccc(C(=O)c2ccc(Br)cc2)c(F)c1 [Ro 48-8071, reference compound] | AEA-DA lipid probe targets in Neuro2a cells (Mus musculus, UniProt Q61425) | 0.8 |
| O=C(/C=C/c1cccnc1)NCCCCC1CCN(C(=O)c2ccccc2)CC1 [FK-866, reference compound] | AEA-DA lipid probe targets in Neuro2a cells (Mus musculus, UniProt Q61425) | 1.2 |

###

- Measured On: AEA-DA lipid probe targets in Neuro2a cells (Mus musculus)
- Protocol Conditions: competitor 25 μM
Listing: SILAC ratio Psmd11 of selected molecules
Test Readout: SILAC ratio Psmd11

| Molecule | Measured On | Recorded Measurement |
| --- | --- | --- |
| C=CCN(C)CCCCCCOc1ccc(C(=O)c2ccc(Br)cc2)c(F)c1 [Ro 48-8071, reference compound] | AEA-DA lipid probe targets in Neuro2a cells (Mus musculus) | 0.9 |
| CN1CCN(C(=O)c2c(-c3ccccc3)c3cc([N+](=O)[O-])ccc3n2C)CC1 | AEA-DA lipid probe targets in Neuro2a cells (Mus musculus) | 1.3 |
| CN1CCN(C(=O)c2[nH]c3ccc([N+](=O)[O-])cc3c2-c2ccccc2)CC1 | AEA-DA lipid probe targets in Neuro2a cells (Mus musculus) | 1.3 |
| O=C(/C=C/c1cccnc1)NCCCCC1CCN(C(=O)c2ccccc2)CC1 [FK-866, reference compound] | AEA-DA lipid probe targets in Neuro2a cells (Mus musculus) | 1.3 |

###

- Measured On: AEA-DA lipid probe targets in Neuro2a cells (Mus musculus, UniProt Q8K0C4)
- Sequence (Q8K0C4 whole entry): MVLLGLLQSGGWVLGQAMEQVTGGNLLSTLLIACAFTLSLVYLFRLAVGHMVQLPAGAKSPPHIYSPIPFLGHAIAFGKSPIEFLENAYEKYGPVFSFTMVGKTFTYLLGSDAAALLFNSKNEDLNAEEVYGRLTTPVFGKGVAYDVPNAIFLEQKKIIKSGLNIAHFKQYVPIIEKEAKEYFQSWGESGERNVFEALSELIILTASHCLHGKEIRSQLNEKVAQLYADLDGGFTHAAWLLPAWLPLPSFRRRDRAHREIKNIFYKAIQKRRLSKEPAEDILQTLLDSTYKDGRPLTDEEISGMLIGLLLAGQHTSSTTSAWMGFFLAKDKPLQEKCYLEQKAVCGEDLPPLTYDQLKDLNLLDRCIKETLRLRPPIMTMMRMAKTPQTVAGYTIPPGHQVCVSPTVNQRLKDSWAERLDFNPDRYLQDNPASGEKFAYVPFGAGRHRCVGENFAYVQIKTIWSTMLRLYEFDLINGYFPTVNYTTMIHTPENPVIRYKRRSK
- Protocol Conditions: competitor 25 μM

| Compound | SILAC ratio Cyp51a1 |
| --- | --- |
| O=C(/C=C/c1cccnc1)NCCCCC1CCN(C(=O)c2ccccc2)CC1 [FK-866, reference compound] | 1.5 |
| C=CCN(C)CCCCCCOc1ccc(C(=O)c2ccc(Br)cc2)c(F)c1 [Ro 48-8071, reference compound] | 1.3 |
| CN1CCN(C(=O)c2[nH]c3ccc([N+](=O)[O-])cc3c2-c2ccccc2)CC1 | 2.2 |
| CN1CCN(C(=O)c2c(-c3ccccc3)c3cc([N+](=O)[O-])ccc3n2C)CC1 | 1.2 |

###

- Measured On: AEA-DA lipid probe targets in Neuro2a cells (Mus musculus)
- Protocol Conditions: competitor 25 μM
This section presents compounds with their documented SILAC ratio Acad9 values.
Test Readout: SILAC ratio Acad9

| Compound | Test Readout | Recorded Measurement |
| --- | --- | --- |
| CN1CCN(C(=O)c2c(-c3ccccc3)c3cc([N+](=O)[O-])ccc3n2C)CC1 | SILAC ratio Acad9 | 1.7 |
| CN1CCN(C(=O)c2[nH]c3ccc([N+](=O)[O-])cc3c2-c2ccccc2)CC1 | SILAC ratio Acad9 | 1.2 |
| O=C(/C=C/c1cccnc1)NCCCCC1CCN(C(=O)c2ccccc2)CC1 [FK-866, reference compound] | SILAC ratio Acad9 | 1.2 |
| C=CCN(C)CCCCCCOc1ccc(C(=O)c2ccc(Br)cc2)c(F)c1 [Ro 48-8071, reference compound] | SILAC ratio Acad9 | 1.3 |

###

Listed compounds paired with reported SILAC ratio, Dcakd
- Measured On: AEA-DA lipid probe targets in Neuro2a cells (Mus musculus, UniProt Q8BHC4)
- Sequence (Q8BHC4 1-231): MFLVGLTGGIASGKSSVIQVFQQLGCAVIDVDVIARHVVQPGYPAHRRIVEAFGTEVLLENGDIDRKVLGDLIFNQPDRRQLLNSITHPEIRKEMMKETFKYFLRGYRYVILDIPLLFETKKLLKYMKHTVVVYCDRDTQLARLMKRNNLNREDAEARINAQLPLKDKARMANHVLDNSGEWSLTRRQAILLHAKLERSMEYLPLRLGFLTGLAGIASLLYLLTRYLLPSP
- Protocol Conditions: competitor 25 μM

| Compound | Measured On | SILAC ratio, Dcakd |
| --- | --- | --- |
| CN1CCN(C(=O)c2c(-c3ccccc3)c3cc([N+](=O)[O-])ccc3n2C)CC1 | AEA-DA lipid probe targets in Neuro2a cells (Mus musculus, UniProt Q8BHC4) | 1.4 |
| O=C(/C=C/c1cccnc1)NCCCCC1CCN(C(=O)c2ccccc2)CC1 [FK-866, reference compound] | AEA-DA lipid probe targets in Neuro2a cells (Mus musculus, UniProt Q8BHC4) | 1.1 |
| CN1CCN(C(=O)c2[nH]c3ccc([N+](=O)[O-])cc3c2-c2ccccc2)CC1 | AEA-DA lipid probe targets in Neuro2a cells (Mus musculus, UniProt Q8BHC4) | 1.4 |
| C=CCN(C)CCCCCCOc1ccc(C(=O)c2ccc(Br)cc2)c(F)c1 [Ro 48-8071, reference compound] | AEA-DA lipid probe targets in Neuro2a cells (Mus musculus, UniProt Q8BHC4) | 1.0 |

###

Listed below: SILAC ratio Slc25a1 values for each entry.
- Measured On: AEA-DA lipid probe targets in Neuro2a cells (Mus musculus)
- Protocol Conditions: competitor 25 μM
Test Readout: SILAC ratio Slc25a1

| Compound | Test Readout | Recorded Measurement |
| --- | --- | --- |
| CN1CCN(C(=O)c2c(-c3ccccc3)c3cc([N+](=O)[O-])ccc3n2C)CC1 [KML110] | SILAC ratio Slc25a1 | 1.2 |
| CN1CCN(C(=O)c2[nH]c3ccc([N+](=O)[O-])cc3c2-c2ccccc2)CC1 [MJN228] | SILAC ratio Slc25a1 | 1.1 |
| O=C(/C=C/c1cccnc1)NCCCCC1CCN(C(=O)c2ccccc2)CC1 [FK-866, reference compound] | SILAC ratio Slc25a1 | 1.2 |
| C=CCN(C)CCCCCCOc1ccc(C(=O)c2ccc(Br)cc2)c(F)c1 [Ro 48-8071, reference compound] | SILAC ratio Slc25a1 | 1.0 |

###

- Measured On: AEA-DA lipid probe targets in Neuro2a cells (Mus musculus, UniProt P21995)
- Sequence (P21995 34-330): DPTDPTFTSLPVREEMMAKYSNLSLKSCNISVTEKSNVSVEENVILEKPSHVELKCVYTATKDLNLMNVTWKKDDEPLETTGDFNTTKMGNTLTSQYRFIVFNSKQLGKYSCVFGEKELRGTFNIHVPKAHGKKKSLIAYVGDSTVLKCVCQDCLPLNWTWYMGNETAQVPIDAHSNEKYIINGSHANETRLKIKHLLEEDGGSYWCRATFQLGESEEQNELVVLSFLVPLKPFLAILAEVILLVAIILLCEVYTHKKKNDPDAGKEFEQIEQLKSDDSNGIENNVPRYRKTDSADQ
- Protocol Conditions: competitor 25 μM
Reported SILAC ratio, Emb values follow for various compounds

| Compound | SILAC ratio, Emb |
| --- | --- |
| C=CCN(C)CCCCCCOc1ccc(C(=O)c2ccc(Br)cc2)c(F)c1 [Ro 48-8071, reference compound] | 1.1 |
| CN1CCN(C(=O)c2[nH]c3ccc([N+](=O)[O-])cc3c2-c2ccccc2)CC1 | 1.7 |
| CN1CCN(C(=O)c2c(-c3ccccc3)c3cc([N+](=O)[O-])ccc3n2C)CC1 | 1.8 |
| O=C(/C=C/c1cccnc1)NCCCCC1CCN(C(=O)c2ccccc2)CC1 [FK-866, reference compound] | 1.3 |

###

- Measured On: AEA-DA lipid probe targets in Neuro2a cells (Mus musculus)
- Protocol Conditions: competitor 25 μM
Test Readout: SILAC ratio Phgdh

| Molecule | Measured On | Recorded Measurement |
| --- | --- | --- |
| CN1CCN(C(=O)c2[nH]c3ccc([N+](=O)[O-])cc3c2-c2ccccc2)CC1 | AEA-DA lipid probe targets in Neuro2a cells (Mus musculus) | 1.1 |
| O=C(/C=C/c1cccnc1)NCCCCC1CCN(C(=O)c2ccccc2)CC1 [FK-866, reference compound] | AEA-DA lipid probe targets in Neuro2a cells (Mus musculus) | 1.3 |
| CN1CCN(C(=O)c2c(-c3ccccc3)c3cc([N+](=O)[O-])ccc3n2C)CC1 | AEA-DA lipid probe targets in Neuro2a cells (Mus musculus) | 1.5 |
| C=CCN(C)CCCCCCOc1ccc(C(=O)c2ccc(Br)cc2)c(F)c1 [Ro 48-8071, reference compound] | AEA-DA lipid probe targets in Neuro2a cells (Mus musculus) | 1.0 |
